assay: Antiproliferative activity against human HCT8 cells assessed as growth inhibition after 48 hrs by sulforhodamine B assay; format: functional, cell-based; settings: HCT-8, 48 h
MEASUREMENT TYPE: IC50 (µM)
Unit µM implied. Number only.

GIVEN SMILES: CC(=O)O[C@H]1C(=O)[C@]2(C)[C@@H](O[C@@H]3OC[C@@H](O)[C@H](O)[C@H]3O)C[C@H]3OC[C@@]3(OC(C)=O)[C@H]2[C@H](OC(=O)c2ccccc2)[C@]2(O)C[C@H](OC(=O)[C@H](O)[C@@H](NC(=O)c3ccccc3)c3ccccc3)C(C)=C1C2(C)C
MEASUREMENT TYPE: IC50
REPORTED RESULT: 5.9
//
GIVEN SMILES: C=C1[C@@H](OC(=O)/C=C/c2ccccc2)C[C@H](OC(C)=O)[C@]2(C)[C@@H]1C[C@@H]1C[C@H](OC(C)=O)C(C)=C([C@@H](OC(C)=O)[C@@H]2OC(C)=O)C1(C)C
MEASUREMENT TYPE: IC50
REPORTED RESULT: 11
//
GIVEN SMILES: CC(=O)O[C@H]1C(=O)[C@@]2(C)[C@H]([C@H](OC(=O)c3ccccc3)[C@]3(O)C[C@H](OC(=O)[C@H](O)[C@@H](NC(=O)c4ccccc4)c4ccccc4)C(C)=C1C3(C)C)[C@]1(OC(C)=O)CO[C@@H]1C[C@@H]2O
MEASUREMENT TYPE: IC50
REPORTED RESULT: 0.066
//
GIVEN SMILES: CC(=O)O[C@@]12CO[C@@H]1C[C@H](O[C@@H]1OC[C@@H](O)[C@H](O)[C@H]1O)[C@@]1(C)C(=O)[C@H](O)C3=C(C)[C@@H](OC(=O)[C@H](O)[C@@H](NC(=O)c4ccccc4)c4ccccc4)C[C@@](O)([C@@H](OC(=O)c4ccccc4)[C@H]21)C3(C)C
MEASUREMENT TYPE: IC50
REPORTED RESULT: 0.26

Query: Answer with reported IC50 of `CC(=O)O[C@@]12CO[C@@H]1C[C@@H](O)[C@@]1(C)C(=O)[C@H](O)C3=C(C)[C@@H](OC(=O)[C@H](O)[C@@H](NC(=O)c4ccccc4)c4ccccc4)C[C@@](O)([C@@H](OC(=O)c4ccccc4)[C@H]21)C3(C)C`
Reply: 13
